# System under test: CYP1A2 (Homo sapiens, UniProt P05177)
# Sequence (P05177 whole entry): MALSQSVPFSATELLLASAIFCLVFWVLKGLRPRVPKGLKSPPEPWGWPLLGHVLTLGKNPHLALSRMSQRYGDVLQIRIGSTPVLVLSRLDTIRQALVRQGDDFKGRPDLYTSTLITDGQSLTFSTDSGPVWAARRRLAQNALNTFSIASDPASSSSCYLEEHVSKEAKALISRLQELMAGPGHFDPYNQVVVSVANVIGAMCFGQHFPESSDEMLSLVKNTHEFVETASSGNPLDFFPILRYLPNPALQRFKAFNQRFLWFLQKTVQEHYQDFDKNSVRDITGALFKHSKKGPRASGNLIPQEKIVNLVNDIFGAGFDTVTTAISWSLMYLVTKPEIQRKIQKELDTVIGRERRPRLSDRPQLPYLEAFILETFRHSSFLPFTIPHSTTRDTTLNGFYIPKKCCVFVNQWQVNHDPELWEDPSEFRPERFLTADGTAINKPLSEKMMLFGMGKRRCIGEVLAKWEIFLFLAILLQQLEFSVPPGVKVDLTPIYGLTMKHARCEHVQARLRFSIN
# Procedure details: Activation of CYP1A2 in human hepatocyte using phenacetin as substrate preincubated for 5 days followed by substrate addition and measured after 1 hr by LC-MS/MS analysis relative to control
# Format: ADME, cell-based
# Measurement setup: hepatocytes, probe phenacetin, time 121 hrs
Measure name: Emax at 1 h

## Input Consider the molecule COc1ccc(CNC(=O)c2sc3nnc(C)c(C)c3c2N)cc1F and give its measured Emax at 1 h.
## Output ≤ 1%

* * *

# Procedure details: Elimination half life in Beagle dog at 3 mg/kg,po or 1 mg/kg,iv by LC-MS/MS analysis
# Format: ADME, organism-based, Canis lupus familiaris
# Measurement setup: in vivo, read-out: beta t1/2 (converted)
Measure name: half-life
# do not omit the unit; it follows the number

## Input Consider the compound COc1ccc(CNC(=O)c2sc3nnc(C)c(C)c3c2N)cc1F and give its measured half-life.
## Output 1.3 h

* * *

# System under test: Muscarinic acetylcholine receptor M2 (Homo sapiens)
# Sequence (P08172 whole entry): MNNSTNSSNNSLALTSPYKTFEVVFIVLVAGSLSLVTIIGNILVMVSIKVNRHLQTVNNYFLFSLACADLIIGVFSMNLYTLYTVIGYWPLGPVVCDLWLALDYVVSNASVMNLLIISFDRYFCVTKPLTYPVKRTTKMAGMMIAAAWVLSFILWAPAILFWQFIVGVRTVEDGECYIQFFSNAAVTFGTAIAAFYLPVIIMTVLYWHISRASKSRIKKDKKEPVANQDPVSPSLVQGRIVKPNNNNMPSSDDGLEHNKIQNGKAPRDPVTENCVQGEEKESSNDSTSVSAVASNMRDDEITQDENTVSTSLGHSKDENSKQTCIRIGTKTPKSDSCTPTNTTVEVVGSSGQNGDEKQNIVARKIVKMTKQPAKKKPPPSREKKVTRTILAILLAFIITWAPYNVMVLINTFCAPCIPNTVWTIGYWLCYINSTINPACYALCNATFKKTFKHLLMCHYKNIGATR
# Procedure details: Positive allosteric modulator activity at human M2 receptor expressed in CHO cells co-expressing Gqi5 assessed as maximal response to ACh by calcium mobilization assay
pEC50: −log10 of the molar value.
Measure name: pEC50

## Input For Muscarinic acetylcholine receptor M2 (Homo sapiens), provide pEC50 of COc1ccc(CNC(=O)c2sc3nnc(C)c(C)c3c2N)cc1F please.
## Output < 4.52

* * *

# System under test: Voltage-gated inwardly rectifying potassium channel KCNH2 (Homo sapiens, UniProt Q12809)
# Sequence (Q12809 whole entry): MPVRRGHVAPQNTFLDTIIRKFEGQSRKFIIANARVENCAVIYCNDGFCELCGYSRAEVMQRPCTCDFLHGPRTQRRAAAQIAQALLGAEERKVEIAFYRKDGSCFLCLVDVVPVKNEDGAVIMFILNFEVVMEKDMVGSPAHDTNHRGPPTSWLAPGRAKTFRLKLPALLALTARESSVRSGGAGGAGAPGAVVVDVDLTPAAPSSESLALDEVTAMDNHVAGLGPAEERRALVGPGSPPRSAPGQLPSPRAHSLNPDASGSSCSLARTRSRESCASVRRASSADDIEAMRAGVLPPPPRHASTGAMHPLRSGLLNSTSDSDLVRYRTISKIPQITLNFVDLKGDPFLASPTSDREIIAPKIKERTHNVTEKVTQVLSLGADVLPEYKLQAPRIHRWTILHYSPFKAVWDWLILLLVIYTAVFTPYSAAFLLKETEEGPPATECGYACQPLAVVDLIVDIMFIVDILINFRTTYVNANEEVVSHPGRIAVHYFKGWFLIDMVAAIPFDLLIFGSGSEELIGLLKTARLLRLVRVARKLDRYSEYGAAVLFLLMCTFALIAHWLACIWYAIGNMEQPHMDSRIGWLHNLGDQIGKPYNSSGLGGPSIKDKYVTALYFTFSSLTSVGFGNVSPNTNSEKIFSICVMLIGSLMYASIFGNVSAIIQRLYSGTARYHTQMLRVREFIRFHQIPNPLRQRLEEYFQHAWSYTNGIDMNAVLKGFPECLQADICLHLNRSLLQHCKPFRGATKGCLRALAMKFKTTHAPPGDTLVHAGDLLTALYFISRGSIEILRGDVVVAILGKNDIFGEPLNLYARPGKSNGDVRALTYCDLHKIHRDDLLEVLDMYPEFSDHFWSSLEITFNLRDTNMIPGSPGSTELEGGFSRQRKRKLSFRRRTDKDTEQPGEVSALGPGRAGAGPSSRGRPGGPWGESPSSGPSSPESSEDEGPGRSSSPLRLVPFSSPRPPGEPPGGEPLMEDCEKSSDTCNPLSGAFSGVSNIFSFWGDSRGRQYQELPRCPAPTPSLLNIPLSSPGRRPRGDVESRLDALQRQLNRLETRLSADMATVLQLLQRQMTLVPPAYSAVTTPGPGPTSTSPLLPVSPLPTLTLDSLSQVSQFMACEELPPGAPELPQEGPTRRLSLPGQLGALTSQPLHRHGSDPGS
pIC50: −log10 of the molar value.
Measure name: pIC50

## Input Consider the molecule COc1ccc(CNC(=O)c2sc3nnc(C)c(C)c3c2N)cc1F and give its measured pIC50.
## Output < 4.48

* * *

# Procedure details: Terminal brain concentration in rat model of amphetamine-induced hyperlocomotion activity at 1 to 10 mg/kg, po measured after 1.5 hrs
# Assay type: ADME, organism-based
# Measurement setup: dose 1-10 mg/kg, read-out: Ct
Measure name: concentration at 1.5 h

## Input Consider the molecule COc1ccc(CNC(=O)c2sc3nnc(C)c(C)c3c2N)cc1F and give its measured concentration at 1.5 h.
## Output 560 nM

* * *

# Procedure details: Fraction unbound in rat brain incubated for 6 hrs by LC/MS/MS analysis
# Format: ADME, tissue-based
Measure name: fraction unbound at 6 h
Answers are plain numbers.

## Input Consider the compound COc1ccc(CNC(=O)c2sc3nnc(C)c(C)c3c2N)cc1F and give its measured fraction unbound at 6 h.
## Output 0.037
